experimental_system: T1, Homo sapiens factor Bb protein (human, UniProt P00751 260-764)
T1 construct: Bought from CompTech (A155); also called complement factor Bb; human factor Bb
T1 sequence (P00751 260-764 limits assumed): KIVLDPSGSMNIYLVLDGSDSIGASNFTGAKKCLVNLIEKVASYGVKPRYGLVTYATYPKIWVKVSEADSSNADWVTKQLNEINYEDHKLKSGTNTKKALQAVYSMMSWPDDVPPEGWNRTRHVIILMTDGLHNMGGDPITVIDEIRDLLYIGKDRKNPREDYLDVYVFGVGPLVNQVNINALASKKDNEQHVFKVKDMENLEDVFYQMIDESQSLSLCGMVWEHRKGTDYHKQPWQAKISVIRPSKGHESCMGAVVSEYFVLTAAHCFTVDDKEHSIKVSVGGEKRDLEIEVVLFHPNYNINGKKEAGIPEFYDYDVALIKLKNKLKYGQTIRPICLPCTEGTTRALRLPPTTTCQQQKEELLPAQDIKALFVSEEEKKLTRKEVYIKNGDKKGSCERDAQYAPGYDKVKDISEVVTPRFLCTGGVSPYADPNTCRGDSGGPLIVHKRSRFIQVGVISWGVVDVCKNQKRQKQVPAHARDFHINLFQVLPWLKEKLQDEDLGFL
method: SPR single cycle kinetics; ratio against VH0/Vκ0
Catalogue of Relative KD readings, one per entry.
Reply: number alone, nothing else.

Below, each entry is followed by its recorded Relative KD result.
Given item VH0/Vκ1 (control) (antibody, V domains shown) VH: EVQLVESGGALVKPGGSLKLSCAASGFTFSNYAMSWVRQTPEKRLEWVATISNRGSYTYYPDSVKGRFTISRDNAKNTLYLQMSSLRSEDTALYYCARERPMDYWGQGTSVTVSS VL: DIVMTQSPSFLSASVGDRVTITCKASQDVGTAVAWYQQKPGQPPKLLIYWASTRHTGVPDRFTGSGSGTDFTLTISSLQSEDFAVYFCHQHSSNPLTFGQGTKLEIK , the value recorded as its Relative KD is 1.52

Given item VH1/Vκ0 (control) (antibody, V domains shown) VH: EVQLVESGGGLVKPGGSLRLSCAASGFTFSNYAMSWVRQAPGKGLEWVATISNRGSYTYYPDSVKGRFTISRDNAKNSLYLQMSSLRSEDTALYYCARERPMDYWGQGTSVTVSS VL: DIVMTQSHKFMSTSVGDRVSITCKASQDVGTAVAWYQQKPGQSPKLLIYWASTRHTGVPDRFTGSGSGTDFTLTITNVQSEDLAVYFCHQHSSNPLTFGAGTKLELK , the value recorded as its Relative KD is 1.76

Given item VH2/Vκ3 (antibody, V domains shown) VH: EVQLVESGGGLVKPGGSLRLSCAASGFTFSNYAMSWVRQAPGKGLEWVATISNRGSYTYYPDSVKGRFTISRDNAKNSLYLQMNSLRAEDTALYYCARERPMDYWGQGTLVTVSS VL: DIQMTQSPSTLSASVGDRVTITCKASQDVGTAVAWYQQKPGQPPKLLIYWASTRHTGVPDRFSGSGSGTDFTLTISSLQAEDFAVYFCHQHSSNPLTFGQGTKLEIK , the value recorded as its Relative KD is 6.93

Given item VH1/Vκ3 (antibody, V domains shown) VH: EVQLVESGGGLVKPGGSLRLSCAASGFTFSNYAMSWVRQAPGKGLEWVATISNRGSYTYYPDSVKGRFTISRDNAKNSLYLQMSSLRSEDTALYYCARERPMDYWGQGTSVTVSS VL: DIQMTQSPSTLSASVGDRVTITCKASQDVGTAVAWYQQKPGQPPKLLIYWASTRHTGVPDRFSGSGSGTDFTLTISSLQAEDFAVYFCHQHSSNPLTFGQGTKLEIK , the value recorded as its Relative KD is 2.22

Turning to the following binder.
Given item VH2/Vκ5 (antibody, V domains shown) VH: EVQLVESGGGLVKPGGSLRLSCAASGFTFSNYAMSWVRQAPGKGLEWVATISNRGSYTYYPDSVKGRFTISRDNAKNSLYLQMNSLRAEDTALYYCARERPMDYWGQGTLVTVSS VL: DIQMTQSPSTLSASVGDRVTITCRASQDVGTAVAWYQQKPGQPPKLLIYWASTRHTGVPDRFSGSGSGTDFTLTISSLQAEDFATYYCHQHSSNPLTFGQGTKLEIK , the value recorded as its Relative KD is 9.43
